Data origin, for the record: ChEMBL document CHEMBL1124349

The following compounds are shown together with reported log10(IC50) values.
Molecular target: GABA-A receptor; anion channel
Assay: Inhibition of radiolabeled antagonist [3H]-Ro- 15-1788 binding to benzodiazepine receptor from rat cortical membranes
Assay type: cell membranes, Membrane
Quantity Measured: log10(IC50) (log10 of the value in nM)

| Compound | Quantity Measured | Data Value |
| --- | --- | --- |
| CCCc1noc(-c2ncn3c2CN(C)C(=O)c2ccccc2-3)n1 | log10(IC50) | 2.08 |
| CCc1noc(-c2ncn3c2CN=C(c2ccccc2)c2c(F)cccc2-3)n1 | log10(IC50) | 0.99 |
| CCCc1nc(-c2ncn3c2CN=C(c2ccccc2Cl)c2cc(Cl)ccc2-3)no1 | log10(IC50) | 0.91 |
| CC(C)(C)OC(=O)c1ncn2c1C1CCCN1C(=O)c1c(Br)cccc1-2 (stereo not given) | log10(IC50) | -0.22 |
| Cc1noc(-c2ncn3c2CN(C)C(=O)c2cc(F)ccc2-3)n1 | log10(IC50) | 1.70 |
| CC(C)c1noc(-c2ncn3c2CN(C)C(=O)c2c(Cl)cccc2-3)n1 | log10(IC50) | 1.15 |
| CC(C)c1nc(-c2ncn3c2CN(C)C(=O)c2cc(F)ccc2-3)no1 | log10(IC50) | 1.63 |
| CC(C)c1nc(-c2ncn3c2CN(C)C(=O)c2c(Cl)cccc2-3)no1 | log10(IC50) | 0.56 |
| O=C(OCC1CC1)c1ncn2c1C1CCN1C(=O)c1c(Cl)cccc1-2 (stereo not given) | log10(IC50) | 0.62 |
| CCc1noc(-c2ncn3c2CN(C)C(=O)c2c(F)cccc2-3)n1 | log10(IC50) | 1.62 |

----------
The following molecules are shown together with reported IC50 values.
Target: GABA-A receptor; anion channel
Test: Inhibition of radiolabeled antagonist [3H]-Ro- 15-1788 binding to benzodiazepine receptor from rat cortical membranes
Type: cell membranes, Membrane
Quantity Measured: IC50 (nM)

| Entry Smiles | Quantity Measured | Data Value |
| --- | --- | --- |
| CC(C)c1nc(-c2ncn3c2CN=C(c2ccccc2)c2c(Cl)cccc2-3)no1 | IC50 | 6.9 |
| CC(C)c1noc(-c2ncn3c2CN(C)C(=O)c2c(F)cccc2-3)n1 | IC50 | 67 |
| CC(C)c1noc(-c2ncn3c2CN(C)C(=O)c2cc(F)ccc2-3)n1 | IC50 | 100 |
| Cc1noc(-c2ncn3c2CN=C(c2ccccc2)c2c(Cl)cccc2-3)n1 | IC50 | 3.4 |
| Cc1nc(-c2ncn3c2CN(C)C(=O)c2c(Cl)cccc2-3)no1 | IC50 | 3.4 |
| CCc1nc(-c2ncn3c2CN=C(c2ccccc2)c2ccccc2-3)no1 | IC50 | 16 |
| CCc1nc(-c2ncn3c2CN(C)C(=O)c2ccccc2-3)no1 | IC50 | 22 |
| CCCc1noc(-c2ncn3c2CN(C)C(=O)c2c(F)cccc2-3)n1 | IC50 | 24 |
| CCc1noc(-c2ncn3c2CN=C(c2ccccc2)c2c(Cl)cccc2-3)n1 | IC50 | 4.1 |
| CC(C)c1noc(-c2ncn3c2CN=C(c2ccccc2Cl)c2cc(Cl)ccc2-3)n1 | IC50 | 45 |
| CCc1nc(-c2ncn3c2CN=C(c2ccccc2)c2cc(Cl)ccc2-3)no1 | IC50 | 44 |
| Cc1nc(-c2ncn3c2CN(C)C(=O)c2cc(F)ccc2-3)no1 | IC50 | 21 |
| CCc1noc(-c2ncn3c2CN(C)C(=O)c2cc(F)ccc2-3)n1 | IC50 | 105 |
| Cc1nc(-c2ncn3c2CN=C(c2ccccc2)c2c(Cl)cccc2-3)no1 | IC50 | 1.3 |
| CCc1nc(-c2ncn3c2CN=C(c2ccccc2Cl)c2ccccc2-3)no1 | IC50 | 13 |
| CCCc1noc(-c2ncn3c2CN(C)C(=O)c2cc(F)ccc2-3)n1 | IC50 | 42 |
| CCc1noc(-c2ncn3c2CN=C(c2ccccc2)c2ccccc2-3)n1 | IC50 | 19 |
| CC(C)c1noc(-c2ncn3c2CN=C(c2ccccc2)c2cc(Cl)ccc2-3)n1 | IC50 | 120 |
| CC(C)c1nc(-c2ncn3c2CN=C(c2ccccc2)c2c(F)cccc2-3)no1 | IC50 | 6.1 |
| CCc1nc(-c2ncn3c2CN=C(c2ccccc2)c2c(Cl)cccc2-3)no1 | IC50 | 2.8 |
| CCc1noc(-c2ncn3c2CN(C)C(=O)c2c(Cl)cccc2-3)n1 | IC50 | 9.7 |
| CCc1nc(-c2ncn3c2CN(C)C(=O)c2c(Cl)cccc2-3)no1 | IC50 | 6.4 |
| CC(C)c1nc(-c2ncn3c2CN=C(c2ccccc2)c2cc(Cl)ccc2-3)no1 | IC50 | 53 |
| Cc1noc(-c2ncn3c2CN=C(c2ccccc2Cl)c2ccccc2-3)n1 | IC50 | 31 |
| CC(C)c1noc(-c2ncn3c2CN=C(c2ccccc2)c2ccccc2-3)n1 | IC50 | 52 |
| CCc1nc(-c2ncn3c2CN=C(c2ccccc2)c2c(F)cccc2-3)no1 | IC50 | 7.5 |
| CCCc1nc(-c2ncn3c2CN=C(c2ccccc2)c2c(Cl)cccc2-3)no1 | IC50 | 3.9 |
| Cc1noc(-c2ncn3c2CN=C(c2ccccc2Cl)c2cc(Cl)ccc2-3)n1 | IC50 | 110 |
| CCCc1nc(-c2ncn3c2CN(C)C(=O)c2cc(F)ccc2-3)no1 | IC50 | 27 |
| CCCc1nc(-c2ncn3c2CN(C)C(=O)c2c(F)cccc2-3)no1 | IC50 | 14 |
| CCCc1noc(-c2ncn3c2CN=C(c2ccccc2Cl)c2cc(Cl)ccc2-3)n1 | IC50 | 34 |
| CCCc1noc(-c2ncn3c2CN=C(c2ccccc2)c2c(Cl)cccc2-3)n1 | IC50 | 5.2 |
| CCCc1nc(-c2ncn3c2CN(C)C(=O)c2ccccc2-3)no1 | IC50 | 34 |
| CCc1nc(-c2ncn3c2CN(C)C(=O)c2cc(F)ccc2-3)no1 | IC50 | 27 |
| Cc1noc(-c2ncn3c2CN(C)C(=O)c2c(F)cccc2-3)n1 | IC50 | 22 |
| CCc1noc(-c2ncn3c2CN=C(c2ccccc2)c2cc(Cl)ccc2-3)n1 | IC50 | 160 |
| Cc1nc(-c2ncn3c2CN=C(c2ccccc2)c2ccccc2-3)no1 | IC50 | 7 |
| CCCc1nc(-c2ncn3c2CN=C(c2ccccc2)c2c(F)cccc2-3)no1 | IC50 | 5.3 |
| CCCc1noc(-c2ncn3c2CN=C(c2ccccc2)c2cc(Cl)ccc2-3)n1 | IC50 | 120 |
| CC(C)c1nc(-c2ncn3c2CN(C)C(=O)c2c(F)cccc2-3)no1 | IC50 | 19 |
| Cc1noc(-c2ncn3c2CN(C)C(=O)c2ccccc2-3)n1 | IC50 | 67 |
| CC(C)c1noc(-c2ncn3c2CN=C(c2ccccc2Cl)c2ccccc2-3)n1 | IC50 | 31 |
| Cc1nc(-c2ncn3c2CN(C)C(=O)c2ccccc2-3)no1 | IC50 | 27 |
